Tested on: IL-6 (THP-1 cells)
Assay: Inhibition of IL-6 in LPS-stimulated THP-1 monocytes (HTRF)
Assay type: cell-based
Conditions: Homo sapiens, LPS 500 ng/mL, IL-6 by HTRF
Protocol: Human monocyte cell line (THP-1 cells; Catalog # TIB-202, ATCC, Manassas, Va.) were cultured in Roswell Park Memorial Institute (RPMI) 1640 Medium (Catalog #21870-100, Buffalo, N.Y.) with 1% L-glutamine, 1% HEPES, 1% Sodium Pyruvate, 2% Sodium Bicarbonate supplemented with 100 units/mL penicillin, 50 μg/mL streptomycin, 2-mercaptoethanol (0.05 mM) [basal medium] and 10% fetal bovine serum (Catalog #16140089, Life Technologies, Carlsbad, Calif.) at 37° C. and 5% CO2. […]
pEC50: −log10 of the molar value.
test-readout: pEC50

INSERT INTO assay_data (compound_string, relation_sign, reported_value) VALUES
  ('O=C(Nc1cncc(-c2ccc3[nH]nc(-c4nc5c(-c6ccccc6F)ccnc5[nH]4)c3n2)c1)C1CCCC1', '=', 5.10),
  ('Fc1cccc(-c2ccnc3[nH]c(-c4n[nH]c5ccc(-c6cncc(OCCN7CCCC7)c6)nc45)nc23)c1', '<', 5.00),
  ('Cn1cc(-c2ccc3[nH]nc(-c4nc5c(-c6cccs6)ccnc5[nH]4)c3n2)cn1', '<', 5.00),
  ('COc1cncc(-c2ccc3[nH]nc(-c4nc5c(-c6cccc(F)c6)ccnc5[nH]4)c3n2)c1', '=', 5.08),
  ('c1ccc(-c2ccc3[nH]nc(-c4nc5cccnc5[nH]4)c3n2)nc1', '=', 6.94),
  ('CN(C)Cc1cncc(-c2ccc3[nH]nc(-c4nc5c(-c6cccs6)ccnc5[nH]4)c3n2)c1', '=', 5.32),
  ('CS(=O)(=O)NCc1cc(F)cc(-c2ccnc3[nH]c(-c4n[nH]c5ccc(-c6cncc(CNCc7ccccc7)c6)nc45)nc23)c1', '<', 5.00);

All values here come from patent US10329309B2.
